Taken from patent US11090308B2.

Molecular target: UniProtKB P10635
Sequence (P10635 whole entry): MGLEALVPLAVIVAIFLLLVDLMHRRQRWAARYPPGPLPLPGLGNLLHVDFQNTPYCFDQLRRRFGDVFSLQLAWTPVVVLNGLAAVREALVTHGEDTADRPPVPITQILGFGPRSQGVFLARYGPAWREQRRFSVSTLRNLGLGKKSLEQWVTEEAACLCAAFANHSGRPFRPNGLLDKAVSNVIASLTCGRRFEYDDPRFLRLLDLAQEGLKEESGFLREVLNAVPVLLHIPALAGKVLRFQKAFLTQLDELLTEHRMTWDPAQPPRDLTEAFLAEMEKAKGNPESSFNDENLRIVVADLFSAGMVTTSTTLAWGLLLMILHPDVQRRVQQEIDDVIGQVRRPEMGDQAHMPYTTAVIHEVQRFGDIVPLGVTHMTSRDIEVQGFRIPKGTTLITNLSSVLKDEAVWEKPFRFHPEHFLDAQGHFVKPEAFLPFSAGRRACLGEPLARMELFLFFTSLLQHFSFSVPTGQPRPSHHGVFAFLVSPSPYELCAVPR
Parameter: IC50

Problem: Look up IC50: CC(CO)c1cc(Oc2c(Cl)cc(-n3nc(C#N)c(=O)[nH]c3=O)cc2Cl)n[nH]c1=O (stereo not shown)
Result: > 50 µM

* * *

Biological target: OATP1B3 (Homo sapiens)
Sequence (Q9NPD5 1-702): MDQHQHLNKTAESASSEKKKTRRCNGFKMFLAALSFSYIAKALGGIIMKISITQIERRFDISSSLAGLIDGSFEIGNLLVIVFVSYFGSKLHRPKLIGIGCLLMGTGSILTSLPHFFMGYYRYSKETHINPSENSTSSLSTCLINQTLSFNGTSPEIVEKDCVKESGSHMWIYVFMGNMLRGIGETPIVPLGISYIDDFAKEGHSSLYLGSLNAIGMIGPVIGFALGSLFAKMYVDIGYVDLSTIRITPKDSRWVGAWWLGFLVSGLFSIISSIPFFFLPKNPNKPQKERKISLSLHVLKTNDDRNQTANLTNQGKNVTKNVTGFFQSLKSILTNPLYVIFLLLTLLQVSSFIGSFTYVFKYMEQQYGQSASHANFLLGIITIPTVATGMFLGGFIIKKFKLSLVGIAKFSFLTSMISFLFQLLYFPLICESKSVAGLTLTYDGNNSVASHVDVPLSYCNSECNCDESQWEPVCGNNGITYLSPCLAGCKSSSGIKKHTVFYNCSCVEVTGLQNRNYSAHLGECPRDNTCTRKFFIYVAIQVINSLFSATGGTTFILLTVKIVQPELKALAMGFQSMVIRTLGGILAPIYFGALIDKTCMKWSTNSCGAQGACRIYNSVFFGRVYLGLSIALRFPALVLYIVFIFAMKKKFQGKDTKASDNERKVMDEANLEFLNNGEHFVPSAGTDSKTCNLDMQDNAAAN
Parameter: IC50

Problem: Look up IC50: CC(CO)c1cc(Oc2c(Cl)cc(-n3nc(C#N)c(=O)[nH]c3=O)cc2Cl)n[nH]c1=O (stereo not shown) [MGL-3623]
Result: 22.6 µM

* * *

Experiment: Dog liver, bile, plasma distribution
Format: in vivo
Settings: Beagle, dog, hepatic portal vein plasma, po, 100 mg/kg, Dog 3; 4 hours after single daily 100 mg/kg oral doses for four days; read-out: Concentration in Hepatic Portal Vein Plasma
Parameter: concentration at 4 h
Please append the unit to your numeric answer.

Problem: Look up concentration at 4 h: CC(C)c1cc(Oc2c(Cl)cc(-n3nc(C#N)c(=O)[nH]c3=O)cc2Cl)n[nH]c1=O [MGL-3196]
Result: 98.6 µg/mL

* * *

Assay: Dog oral PK and bioavailability studies
Type: in vivo
Details: dog, plasma, po
From the text: […]
Parameter: bioavailability

Problem: Look up bioavailability: `CC(C)c1cc(Oc2c(Cl)cc(-n3nc(C#N)c(=O)[nH]c3=O)cc2Cl)n[nH]c1=O`
Result: 11 to 135%

* * *

Assay: Dog liver, bile, plasma distribution
Type: in vivo
Settings: Beagle, dog, liver, po, 100 mg/kg, Dog 1; 4 hours after single daily 100 mg/kg oral doses for four days; read-out: Concentration in Liver
Parameter: concentration at 4 h (ng/g)
Numeric only. Scale: ng/g

Problem: Look up concentration at 4 h: `CC(C)c1cc(Oc2c(Cl)cc(-n3nc(C#N)c(=O)[nH]c3=O)cc2Cl)n[nH]c1=O`
Result: 129000

* * *

Target: OATP1B1 (Homo sapiens, UniProt Q9Y6L6)
Sequence (Q9Y6L6 1-691): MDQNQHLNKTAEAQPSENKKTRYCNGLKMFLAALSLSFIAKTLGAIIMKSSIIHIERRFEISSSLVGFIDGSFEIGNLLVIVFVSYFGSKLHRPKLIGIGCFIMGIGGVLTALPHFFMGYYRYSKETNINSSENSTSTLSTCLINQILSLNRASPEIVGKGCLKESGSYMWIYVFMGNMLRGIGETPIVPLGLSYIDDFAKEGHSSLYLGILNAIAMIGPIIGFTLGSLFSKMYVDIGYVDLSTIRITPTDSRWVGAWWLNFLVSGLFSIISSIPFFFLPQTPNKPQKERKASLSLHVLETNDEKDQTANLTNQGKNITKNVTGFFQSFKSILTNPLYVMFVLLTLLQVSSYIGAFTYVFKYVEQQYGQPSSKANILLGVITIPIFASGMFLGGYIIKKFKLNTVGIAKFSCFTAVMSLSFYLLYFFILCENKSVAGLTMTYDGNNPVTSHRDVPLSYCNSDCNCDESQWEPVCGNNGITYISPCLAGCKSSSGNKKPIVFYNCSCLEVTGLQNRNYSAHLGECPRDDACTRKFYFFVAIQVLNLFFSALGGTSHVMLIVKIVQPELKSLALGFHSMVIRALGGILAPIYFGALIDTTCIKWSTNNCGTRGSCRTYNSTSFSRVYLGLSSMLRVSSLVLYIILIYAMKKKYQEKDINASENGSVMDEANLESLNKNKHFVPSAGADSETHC
Assay: In vitro drug transporter assay, OATP1B1
Type: in vitro ADME
Conditions: @10 uM; insignificant; read-out: Inhibitor of: OATP1B1, % inhib
Parameter: inhibition at 10 µM
Please append the unit to your numeric answer.

Problem: Look up inhibition at 10 µM: CC(CO)c1cc(Oc2c(Cl)cc(-n3nc(C#N)c(=O)[nH]c3=O)cc2Cl)n[nH]c1=O (stereo not shown) [MGL-3623]
Result: 23%

* * *

System: CYP3A4/5
Assay: In vitro Cytochrome P-450 enzyme assay, CYP3A4/5
Assay type: in vitro ADME
Settings: human; weak; read-out: Inhibitor of: CYP3A4/5, IC50
Parameter: pIC50
FYI, pIC50 means -log10 of a concentration in mol per litre.

Problem: Form field - read-out: pIC50; system: CYP3A4/5; submitted item: CC(CO)c1cc(Oc2c(Cl)cc(-n3nc(C#N)c(=O)[nH]c3=O)cc2Cl)n[nH]c1=O (stereo not shown)
Result: 4.46

* * *

Molecular target: UniProt:P05177
Sequence (P05177 1-516): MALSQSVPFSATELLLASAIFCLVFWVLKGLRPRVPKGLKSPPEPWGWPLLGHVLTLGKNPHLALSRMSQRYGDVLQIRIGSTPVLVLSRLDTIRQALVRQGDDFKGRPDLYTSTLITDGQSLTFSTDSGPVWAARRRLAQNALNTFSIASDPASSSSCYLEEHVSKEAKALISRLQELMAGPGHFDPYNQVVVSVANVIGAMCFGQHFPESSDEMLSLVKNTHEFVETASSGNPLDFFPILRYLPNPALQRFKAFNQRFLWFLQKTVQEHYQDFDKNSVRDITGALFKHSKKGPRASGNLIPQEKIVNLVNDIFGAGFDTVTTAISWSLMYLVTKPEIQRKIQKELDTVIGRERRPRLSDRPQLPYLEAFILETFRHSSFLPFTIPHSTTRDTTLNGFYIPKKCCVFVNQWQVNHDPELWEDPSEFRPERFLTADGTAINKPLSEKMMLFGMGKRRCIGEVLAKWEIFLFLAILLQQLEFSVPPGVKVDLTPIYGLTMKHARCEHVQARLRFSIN
pIC50: −log10 of the molar value.
Parameter: pIC50

Problem: Look up pIC50: CC(CO)c1cc(Oc2c(Cl)cc(-n3nc(C#N)c(=O)[nH]c3=O)cc2Cl)n[nH]c1=O (stereo not shown) [MGL-3623]
Result: < 4.30

* * *

Molecular target: CYP2B6 (Homo sapiens, UniProt P20813)
Sequence (P20813 whole entry): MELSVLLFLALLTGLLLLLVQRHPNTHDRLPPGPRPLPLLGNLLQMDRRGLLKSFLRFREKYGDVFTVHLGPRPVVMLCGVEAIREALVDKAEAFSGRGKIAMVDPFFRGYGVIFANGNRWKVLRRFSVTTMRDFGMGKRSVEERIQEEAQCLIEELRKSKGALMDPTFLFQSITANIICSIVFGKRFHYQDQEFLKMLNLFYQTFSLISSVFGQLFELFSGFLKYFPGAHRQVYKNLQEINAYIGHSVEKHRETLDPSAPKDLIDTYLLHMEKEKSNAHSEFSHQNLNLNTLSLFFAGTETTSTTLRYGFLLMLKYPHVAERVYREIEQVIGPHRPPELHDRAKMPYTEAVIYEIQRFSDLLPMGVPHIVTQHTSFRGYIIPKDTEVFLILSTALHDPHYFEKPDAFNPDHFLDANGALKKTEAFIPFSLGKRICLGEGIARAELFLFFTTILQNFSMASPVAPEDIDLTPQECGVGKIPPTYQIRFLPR
Test: In vitro Cytochrome P-450 enzyme assay, CYP2B6
Assay type: in vitro ADME
Conditions: range given jointly for CYP2B6, CYP2C9, CYP2C19; weak; read-out: Inhibitor of: CYP2B6, IC50
pIC50: −log10 of the molar value.
Parameter: pIC50

Problem: Look up pIC50: CC(CO)c1cc(Oc2c(Cl)cc(-n3nc(C#N)c(=O)[nH]c3=O)cc2Cl)n[nH]c1=O (stereo not shown) [MGL-3623]
Result: 4.46 to 4.62

* * *

Test: Rat oral PK and bioavailability studies
Type: in vivo
Settings: rat, plasma; rats, oral dosing; read-out: mean elimination half-life
Parameter: half-life

Problem: Look up half-life: CC(C)c1cc(Oc2c(Cl)cc(-n3nc(C#N)c(=O)[nH]c3=O)cc2Cl)n[nH]c1=O [MGL-3196]
Result: 2.5 to 7 h

* * *

Assay: Dog liver, bile, plasma distribution
Format: in vivo
Settings: Beagle, dog, systemic plasma, po, 100 mg/kg, Mean; 4 hours after single daily 100 mg/kg oral doses for four days; read-out: Concentration in Systemic Plasma
Parameter: concentration at 4 h (µg/mL)
Numeric only. Scale: µg/mL

Problem: Look up concentration at 4 h: CC(C)c1cc(Oc2c(Cl)cc(-n3nc(C#N)c(=O)[nH]c3=O)cc2Cl)n[nH]c1=O [MGL-3196]
Result: 71.1

* * *

Target: CYP2C8 (Homo sapiens, UniProt P10632)
Sequence (P10632 whole entry): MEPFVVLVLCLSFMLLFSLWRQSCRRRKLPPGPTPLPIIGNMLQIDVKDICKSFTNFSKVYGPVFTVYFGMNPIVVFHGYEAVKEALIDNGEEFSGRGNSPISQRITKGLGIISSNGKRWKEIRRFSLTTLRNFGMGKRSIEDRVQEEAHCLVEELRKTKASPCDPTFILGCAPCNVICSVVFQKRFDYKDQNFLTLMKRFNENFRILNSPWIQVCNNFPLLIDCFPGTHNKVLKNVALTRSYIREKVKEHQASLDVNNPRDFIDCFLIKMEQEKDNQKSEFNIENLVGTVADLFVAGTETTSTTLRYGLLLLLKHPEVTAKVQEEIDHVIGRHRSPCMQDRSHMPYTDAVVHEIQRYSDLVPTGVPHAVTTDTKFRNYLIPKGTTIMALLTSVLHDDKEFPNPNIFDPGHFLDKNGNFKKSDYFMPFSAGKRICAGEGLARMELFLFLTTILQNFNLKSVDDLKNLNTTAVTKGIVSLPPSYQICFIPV
Reported values of IC50 for individual entries
Numeric only. Scale: µM

CC(CO)c1cc(Oc2c(Cl)cc(-n3nc(C#N)c(=O)[nH]c3=O)cc2Cl)n[nH]c1=O (centres unmarked) [MGL-3623]	6.1

Now for another entry.
Problem: Look up IC50: CC(C)c1cc(Oc2c(Cl)cc(-n3nc(C#N)c(=O)[nH]c3=O)cc2Cl)n[nH]c1=O [MGL-3196]
Result: 0.9
